- EXPERIMENTAL PROTOCOL: Alkaline hydrolysis of the compound assessed as rate constant by HPLC analysis
- Type: physicochemical
The following compounds are shown together with reported Activity values.

1) CCOC(=O)COC(=O)NCCCC(C)Nc1cc(OC)cc2cccnc12 (stereo not drawn) :: 2.5 M⁻¹ s⁻¹
2) COc1cc(NC(C)CCCNC(=O)Oc2ccc(Cl)cc2)c2ncccc2c1 (stereo not drawn) :: 7.17 M⁻¹ s⁻¹
3) CCOC(=O)NCCCC(C)Nc1cc(OC)cc2cccnc12 (stereo not drawn) :: 9.34 ×10⁻⁷ /M/s
4) COc1cc(NC(C)CCCNC(=O)Oc2ccccc2)c2ncccc2c1 (stereo not drawn) :: 2.64 M⁻¹ s⁻¹
5) COc1cc(NC(C)CCCNC(=O)OCC(F)(F)F)c2ncccc2c1 (stereo not drawn) :: 3.95 ×10⁻³ /M/s

QUERY: Answer with the recorded Activity for the compound listed here: CCCCCCOC(=O)NCCCC(C)Nc1cc(OC)cc2cccnc12 (stereo not drawn)
RESULT: 3.49 ×10⁻⁷ /M/s

QUERY: Answer with the recorded Activity for the compound listed here: COc1ccc(OC(=O)NCCCC(C)Nc2cc(OC)cc3cccnc23)cc1 (stereo not drawn)
RESULT: 9.1 ×10⁻¹ /M/s

QUERY: Answer with the recorded Activity for the compound listed here: COc1cc(NC(C)CCCNC(=O)Oc2ccc([N+](=O)[O-])cc2)c2ncccc2c1 (stereo not drawn)
RESULT: 2.4 ×10⁴ /M/s

###

- Tested on: Liver
- EXPERIMENTAL PROTOCOL: Half life for prodrug activation in rat liver homogenate by HPLC analysis
- Format: tissue-based
- ASSAY CONDITIONS: in vitro
VALUE KIND: t1/2 (h)

1. CCCCCCOC(=O)NCCCC(C)Nc1cc(OC)cc2cccnc12 (stereo unspecified) :: 10.4
2. CCOC(=O)NCCCC(C)Nc1cc(OC)cc2cccnc12 (stereo unspecified) :: 15.1
3. COc1ccc(OC(=O)NCCCC(C)Nc2cc(OC)cc3cccnc23)cc1 (stereo unspecified) :: 10.3
4. COc1cc(NC(C)CCCNC(=O)OCC(F)(F)F)c2ncccc2c1 (stereo unspecified) :: 13.7
5. COc1cc(NC(C)CCCNC(=O)Oc2ccccc2)c2ncccc2c1 (stereo unspecified) :: 9.5
6. COc1cc(NC(C)CCCNC(=O)Oc2ccc(Cl)cc2)c2ncccc2c1 (stereo unspecified) :: 11.8
